meta.source: PubChem BioAssay (NCI)

Would you kindly list growth inhibition for each of these compounds?
experiment: NCI Yeast Anticancer Drug Screen. Data for the mlh1 rad18 strain (AID 175); details: S. cerevisiae mlh1 rad18 strain growth inhibition; at 50.0 µM; hits give high values
This is part of a sample that, as a whole, favours compounds with a hit. Of some 79,000 tested, about 15% had one in any assay. The source made the active and inactive calls. Rule as the data show it: active = growth inhibition above about 70%; inactive = the rest.

Request: Can you look up the measured growth inhibition of CCC1(C)NN=C2C(=CC=C3NNC(C)(CC)N32)n2cccc21 (centres undefined) for me?
Result: 26.4% (inactive)

Request: Can you look up the measured growth inhibition of NC(C(F)(F)F)(C(F)(F)F)P(=O)(Cc1ccccc1)Cc1ccccc1 for me?
Result: 7.85% (inactive)

Request: Can you look up the measured growth inhibition of CC1(c2nc3ccccc3[nH]2)CCC(C(=O)O)C(C)(C)O1 (centres undefined) for me?
Result: -32.9% (inactive)

Request: Can you look up the measured growth inhibition of CCCCCOc1ccc(/C=C\C(=O)O)cc1 for me?
Result: -6.35% (inactive)

Request: Can you look up the measured growth inhibition of CC(=O)OCC1COC(C)(c2ccccc2)O1 (centres undefined) for me?
Result: -9.55% (inactive)

Request: Can you look up the measured growth inhibition of CN[C@H]1CCc2cc(OC)c(OC)c(OC)c2-c2ccc(O)c(=O)cc21 for me?
Result: 29.7% (inactive)

Request: Can you look up the measured growth inhibition of O=c1[nH]nc(-c2ccccc2)n1-n1cccc1 for me?
Result: -6.25% (inactive)

Request: Can you look up the measured growth inhibition of CCc1ccc2c(OC(C)=O)c3ccccc3c(OC(C)=O)c2c1 for me?
Result: 74.6% (active)

Request: Can you look up the measured growth inhibition of COC(=O)c1cc(C)ccc1/C=C1\Cc2c(C)cc(C)cc2C1=O for me?
Result: -39.6% (inactive)

Request: Can you look up the measured growth inhibition of Cc1cc(OC(=O)c2ccccc2)c(C)c(C)c1OC(=O)c1ccccc1 for me?
Result: 21.1% (inactive)

Request: Can you look up the measured growth inhibition of N#CC(C(=N/NC(N)=S)/C(=N\NC(N)=S)C(C#N)c1ccccc1)c1ccccc1 (centres undefined) for me?
Result: -15.7% (inactive)

Request: Can you look up the measured growth inhibition of COc1ccc2c(c1OC)C(Cc1ccccc1)N1CCc3cc4c(cc3C1C2)OCO4 (centres undefined) for me?
Result: 77.8% (active)

Request: Can you look up the measured growth inhibition of O=C(Cl)N(C1CCCCC1)C1CCCCC1 for me?
Result: -12.9% (inactive)

Request: Can you look up the measured growth inhibition of COc1ccccc1/C=C(\S)C(=O)O for me?
Result: 8.45% (inactive)

Request: Can you look up the measured growth inhibition of O=[N+]([O-])c1ccc(F)c(Cl)c1 for me?
Result: -7.25% (inactive)

Request: Can you look up the measured growth inhibition of CC(C)=CC1C(C(=O)SCc2cc3c(cc2Br)OCO3)C1(C)C (centres undefined) for me?
Result: 6.5% (inactive)

Request: Can you look up the measured growth inhibition of c1ccc(N2C3Sc4ncccc4C2Sc2ncccc23)cc1 for me?
Result: 7.85% (inactive)

Request: Can you look up the measured growth inhibition of CC1C(=O)CCC2C1(C)CCC1C2(C)CCC2(C)C3CC(C)(C)CCC3(C)CCC12C (centres undefined) for me?
Result: 16.8% (inactive)

Request: Can you look up the measured growth inhibition of COc1cc2ccc3c4cc(OC)c(OCc5ccccc5)cc4cnc3c2cc1OC for me?
Result: 23% (inactive)

Request: Can you look up the measured growth inhibition of COc1ccc(C2C3=C(CC(C)(C)CC3=O)Oc3cc4c(cc32)OCO4)cc1 (centres undefined) for me?
Result: -4.95% (inactive)

Request: Can you look up the measured growth inhibition of COC(=O)c1cc2ccccc2c2c3c(ccc12)OCO3 for me?
Result: -14.3% (inactive)

Request: Can you look up the measured growth inhibition of O=C(COc1ccccc1)Nc1cccc(C(=O)O)c1 for me?
Result: 32.2% (inactive)

Request: Can you look up the measured growth inhibition of CC(C)c1ccc2c(c1)CCC1C(C)(C)[C@@H](O)CC[C@]21C (some centres undefined) for me?
Result: -22.3% (inactive)

Request: Can you look up the measured growth inhibition of O=C(O)Cc1ccc2ccccc2c1Br for me?
Result: 14.3% (inactive)
